# Protocol Summary: Confirmatory qHTS for activators (rescue) of SARS-CoV-2 Cytopathic Effect (CPE) (AID 1508606); further: nearly all actives have a fitted effect of over 70% in size
# Recorded Conditions: Vero E6 SARS-CoV-2 CPE rescue, viability luminescence; series mostly up to 20 µM
Results filed as inconclusive are left out. Active and inactive are the calls of the source. The call rests on the fitted dose curve.
Outcomes: YES (active), NO (inactive)

- Molecule: "COc1ccc(S(=O)(=O)N(CCO)c2ccccc2CN(C)C/C=C/c2ccc(Cl)cc2)cc1"
  Assigned Category: "YES"
- Molecule: "COc1ccc2c(c1)N(C[C@H](C)CN(C)C)c1ccccc1S2"
  Assigned Category: "YES"
- Molecule: "CC1CCN(C(c2ccc(F)cc2)c2ccc(C(C)C(=O)O)cc2-c2ccc(C(F)(F)F)cc2)CC1 (stereo not drawn)"
  Assigned Category: "NO"
- Molecule: "Cc1cc(C)c(CNC(=O)c2cc(-c3ccc(N4CCN(C)CC4)nc3)cc3c2c(C)cn3C(C)C)c(=O)[nH]1"
  Assigned Category: "YES"
- Molecule: "CCCCCCCCC(=O)N[C@H](CN1CCCC1)[C@H](O)c1ccc2c(c1)OCCO2"
  Assigned Category: "YES"
- Molecule: "CONC(=O)Nc1ccc(-c2sc3c(c2CN(C)Cc2ccccc2)c(=O)n(-c2ccccc2)c(=O)n3Cc2c(F)cccc2F)cc1"
  Assigned Category: "NO"
- Molecule: "COc1ccc(CNC(=O)Nc2ncc([N+](=O)[O-])s2)cc1"
  Assigned Category: "YES"
- Molecule: "CC(=O)O/N=C1\\C(=O)N(Cc2cc(Cl)ccc2Cl)c2ccc(Cl)cc21"
  Assigned Category: "YES"
- Molecule: "O=C(O)/C=C/c1ccc(-c2ccc(O)c(C34CC5CC(CC(C5)C3)C4)c2)cc1"
  Assigned Category: "NO"
- Molecule: "Fc1ccc2c(CCNCc3cccc(OCC(F)(F)C(F)F)c3)c[nH]c2c1"
  Assigned Category: "YES"
- Molecule: "Cc1ncc(NC(=O)c2ccc(CN3CCN(C)CC3)c(C(F)(F)F)c2)cc1Nc1nccc(-c2cccnc2)n1"
  Assigned Category: "YES"
- Molecule: "COc1ccc(NS(=O)(=O)c2sc3ccc(Cl)cc3c2C)cc1N1CCNCC1"
  Assigned Category: "YES"
- Molecule: "CN(C)CCC=C1c2ccccc2C(C)(C)c2ccccc21"
  Assigned Category: "YES"
- Molecule: "CC1=CC2OC3CC(O)[C@@](C)(C34CO4)[C@@]2(C)C(O)C1=O (stereo partly drawn)"
  Assigned Category: "NO"
- Molecule: "C[C@H]1CC[C@@]2(OC1)O[C@H]1CC3[C@@H]4CC[C@@H]5C[C@@H](O[C@@H]6O[C@H](CO)[C@@H](O[C@@H]7O[C@@H](C)[C@H](O)[C@@H](O)[C@H]7O)[C@H](O)[C@H]6O[C@@H]6O[C@H](CO)[C@@H](O)[C@H](O)[C@H]6O)CC[C@]5(C)C4CC[C@]3(C)[C@H]1[C@@H]2C (stereo partly drawn)"
  Assigned Category: "NO"
- Molecule: "O=S(=O)(NCC1CC1)c1ccc(Nc2nccc(N3CCCc4cc(O)ccc43)n2)cc1"
  Assigned Category: "YES"
- Molecule: "O=C1Nc2nc(-c3c(O)cccc3OCC3CC3)cc([C@@H]3CCCNC3)c2CO1"
  Assigned Category: "YES"
- Molecule: "CC(=O)c1c(OCCN2CCCCC2)c(OCCC(C)c2ccc(F)cc2)c2oc(C)nc2c1C (stereo not drawn)"
  Assigned Category: "YES"
- Molecule: "COc1cc2nc(N3CCCCC3)nc(NC3CCN(C)CC3)c2cc1OC"
  Assigned Category: "YES"
- Molecule: "C/C1=C\\CCC2=CC(OC2=O)C(C)(C)/C=C/C1=O (stereo not drawn)"
  Assigned Category: "YES"
- Molecule: "c1ccc(-c2cc(CCC3CCNCC3)c3ccccc3n2)cc1"
  Assigned Category: "NO"
- Molecule: "C/C=C(\\C)C(=O)O[C@H]1C=C(CO)C(=O)[C@H](OC(C)=O)[C@H]1C(C)C"
  Assigned Category: "NO"
- Molecule: "CC(C)(O)CNc1ncc(-c2ccnc(Nc3ccncc3)n2)c(CC2CC2)n1"
  Assigned Category: "YES"
- Molecule: "C[C@@H]1C[C@H](N)C[C@H](c2ccncc2NC(=O)c2ccc(F)c(-c3c(F)cccc3F)n2)C1"
  Assigned Category: "YES"
- Molecule: "COc1cc(N2CCN(C)CC2)ccc1Nc1nccc(-c2cn(C)c3cnccc23)n1"
  Assigned Category: "YES"
- Molecule: "CCCC[C@@H](C=O)NC(=O)[C@H](CC(C)C)NC(=O)OCc1ccccc1"
  Assigned Category: "YES"
- Molecule: "CN(C)CCN(Cc1ccc(-c2ccc(CNCCc3ccccc3)cc2)cc1)C(=O)CCC1CCCC1"
  Assigned Category: "NO"
- Molecule: "CN(CCCNC(=O)c1ccc2nc3c(c(Cl)c2c1)CCCC3)Cc1ccccc1"
  Assigned Category: "YES"
